Where these numbers come from: patent US20260138959A1

Test system: c-KIT V560G/D816V
Experiment: Proliferation inhibitory activity on Ba/F3 cell (CellTiter-Glo, 72 hours), c-KIT V560G/D816V
Assay type: cell-based
Details: Mus musculus, BaF3, c-KIT V560G/D816V cells, read-out: Cell (nM) c-KIT V560G/D816V (GI50 class)
In this section we review reported GI50 values for a set of molecules.

Known GI50 results, listed for orientation:
>  <Molecule>
COc1cc2c(-c3ccc(NC(=O)Cc4ccc(C(F)(F)F)cc4)cc3)ncnc2cc1OCCCN1CCN2CCCC2C1 (centres unmarked)

>  <Value Observed>
≤ 200 nM

$$$$
>  <Molecule>
COc1cc2c(-c3ccc(NC(=O)Cc4ccc(C(F)(F)F)cc4)cc3)ncnc2cc1OCCCCl

>  <Value Observed>
200 to 500 nM

$$$$
>  <Molecule>
CCN1CCC(COc2cc3ncnc(-c4ccc(NC(=O)Cc5ccc(C(F)(F)F)cc5)cc4)c3cc2OC)CC1

>  <Value Observed>
≤ 200 nM

$$$$

Problem: Tell me GI50 of COc1ccc(CC(=O)Nc2ccc(-c3ncnc4cc(OCC5CCN(C(C)=O)CC5)c(OC)cc34)cc2)cn1 when tested on c-KIT V560G/D816V.
Result: 200 to 500 nM

Problem: GET GI50 | system: c-KIT V560G/D816V | item: COc1cc2c(-c3ccc(NC(=O)Cc4ccc(C(F)(F)F)cc4)cc3)ncnc2cc1OCC1CCN(C(C)=O)CC1
Result: ≤ 200 nM

Problem: For c-KIT V560G/D816V, give GI50 of the listed molecule: COc1cc2ncnc(-c3ccc(NC(=O)Cc4ccc(C(F)(F)F)cc4)cc3)c2cc1OC1CCNCC1
Result: > 500 nM

###

Test system: c-KIT V560G/D816V
Assay: Proliferation inhibitory activity on Ba/F3 cell (CellTiter-Glo, 72 hours), c-KIT V560G/D816V
Assay type: cell-based
Conditions: Mus musculus, BaF3, c-KIT V560G/D816V cells, read-out: Cell (nM) c-KIT V560G/D816V (GI50 class)
Each entry below lists one item and its recorded GI50 value.

Past entries and their recorded results:
>  <Smiles Str>
COc1cc2c(-c3ccc(NC(=O)Cc4ccc(C(F)(F)F)cc4)cc3)ncnc2cc1OC[C@@H]1CCCNC1

>  <Value Observed>
≤ 200 nM

$$$$
>  <Smiles Str>
CCN1CCC(COc2cc3ncnc(-c4ccc(NC(=O)Cc5ccc6c(c5)OCO6)cc4)c3cc2OC)CC1

>  <Value Observed>
≤ 200 nM

$$$$
>  <Smiles Str>
COc1cc2c(-c3ccc(NC(=O)Cc4ccc(C(F)(F)F)cc4)cc3)ncnc2cc1OC[C@@H]1CCN(C(=O)OC(C)(C)C)C1

>  <Value Observed>
> 500 nM

$$$$
>  <Smiles Str>
COc1cc2ncnc(-c3ccc(NC(=O)Cc4ccc(C(F)(F)F)cc4)cc3)c2cc1O[C@@H]1CCOC1

>  <Value Observed>
> 500 nM

$$$$
>  <Smiles Str>
COc1cc2c(-c3ccc(NC(=O)Cc4ccc(C(F)(F)F)cc4)cc3)ncnc2cc1OC[C@H]1CCN(C(=O)OC(C)(C)C)C1

>  <Value Observed>
> 500 nM

$$$$

Moving on to another compound below.
Problem: Please supply the value of reported GI50 for the item CCN1CCC(COc2cc3ncnc(-c4ccc(NC(=O)C(C)(C)c5ccc(F)cc5)cc4)c3cc2OC)CC1
Result: ≤ 200 nM
